- Tested on: 439559-082-T-J2-PDC complex spheroid growth;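 also: spheroids exposed to agents for 7 days starting day 3 after seeding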
- PROTOCOL DESCRIPTION: Anticancer human tumor 439559-082-T-J2-PDC patient-derived colon adenocarcinoma cell line growth inhibition [Asc]
- STUDY CONDITIONS: curve of first compound; second compound 0.0949 µM
pIC50: −log10 of the molar value.
MEASUREMENT KIND: pIC50

MOLECULE	MEASUREMENT KIND	REPORTED
O=C(c1cc(Cc2n[nH]c(=O)c3ccccc23)ccc1F)N1CCN(C(=O)C2CC2)CC1 + CCN1C(C(=O)NC23CCC(C(=O)O)(CC2)CC3)C(c2cccc(Cl)c2F)C2(C(=O)Nc3cc(Cl)ccc32)C12CCCCC2	pIC50	< 5.00
Cn1ncnc1[C@H]1c2n[nH]c(=O)c3cc(F)cc(c23)N[C@@H]1c1ccc(F)cc1 + CCN1C(C(=O)NC23CCC(C(=O)O)(CC2)CC3)C(c2cccc(Cl)c2F)C2(C(=O)Nc3cc(Cl)ccc32)C12CCCCC2	pIC50	< 7.00

For 439559-082-T-J2-PDC complex spheroid growth, give pIC50 of the listed molecule: C=C(F)C(=O)N1CCN(c2nc(OCC3CCCN3C)nc3c2CCN(c2cccc4cccc(Cl)c24)C3)CC1CC#N (configuration not stated) + CCN1C(C(=O)NC23CCC(C(=O)O)(CC2)CC3)C(c2cccc(Cl)c2F)C2(C(=O)Nc3cc(Cl)ccc32)C12CCCCC2
5.24
